# literature pull: NAD-dependent protein deacetylase sirtuin-1 (Homo sapiens) IC50
# Sequence (Q96EB6 whole entry): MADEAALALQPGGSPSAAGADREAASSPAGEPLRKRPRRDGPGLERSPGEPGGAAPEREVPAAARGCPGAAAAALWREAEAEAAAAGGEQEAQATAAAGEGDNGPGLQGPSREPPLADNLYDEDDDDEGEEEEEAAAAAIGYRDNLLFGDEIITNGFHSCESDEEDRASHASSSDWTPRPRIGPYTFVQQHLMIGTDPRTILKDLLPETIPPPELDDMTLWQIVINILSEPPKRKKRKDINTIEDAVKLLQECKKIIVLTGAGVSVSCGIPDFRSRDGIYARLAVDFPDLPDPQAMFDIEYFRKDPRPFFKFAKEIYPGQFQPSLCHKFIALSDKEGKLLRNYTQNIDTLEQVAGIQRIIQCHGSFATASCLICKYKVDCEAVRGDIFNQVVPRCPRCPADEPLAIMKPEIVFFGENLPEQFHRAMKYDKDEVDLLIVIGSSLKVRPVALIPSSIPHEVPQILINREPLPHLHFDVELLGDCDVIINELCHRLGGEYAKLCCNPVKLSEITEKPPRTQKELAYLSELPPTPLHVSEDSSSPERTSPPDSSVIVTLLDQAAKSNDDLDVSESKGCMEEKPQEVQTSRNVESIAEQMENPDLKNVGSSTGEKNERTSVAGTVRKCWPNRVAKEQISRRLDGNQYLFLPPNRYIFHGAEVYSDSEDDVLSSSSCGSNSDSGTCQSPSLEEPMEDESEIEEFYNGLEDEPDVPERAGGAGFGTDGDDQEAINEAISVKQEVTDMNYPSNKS
metric: IC50

INSERT INTO assay_data (compound, result) VALUES
  ('COc1ccc(N2CCN(c3nc(-c4ccccc4)nc4ccccc34)CC2)cc1', '40 µM'),
  ('O=C(c1cc(O)ccc1O)c1coc2ccc(O)cc12', '2.8 µM'),
  ('NC(=O)C1CN(Cc2ccccc2C(=O)O)c2ccccc2O1 (stereo unspecified)', '13.9 µM'),
  ('O=C(On1nnc2ccccc21)c1ccc[nH]1', '> 200 µM'),
  ('Cc1[nH]c2ccccc2c1CCNCc1ccc(/C=C/C(=O)NO)cc1', '> 20 µM'),
  ('O=C(c1ccccc1)c1coc2cc(Br)c(O)c(Br)c12', '198 µM');
